Reported JAK2/JAK1 by item:
Test system: human JAK1
Assay: In vitro JAK kinase assay (HTRF, phosphorylation of biotinylated peptide), JAK1
Format: biochemical
Settings: ratio of JAK2 IC50 to JAK1 IC50, 1 mM ATP
value.type: JAK2/JAK1

INSERT INTO results (compound, value_observed) VALUES
  ('C[C@@H](O)c1nc2cnc3ccsc3c2n1[C@H]1CCCOC1', '>3'),
  ('CCc1nc2cnc3ccsc3c2n1[C@H]1CC[C@H](CC#N)CC1', '>10'),
  ('C[C@@H](O)c1nc2cnc3ccsc3c2n1[C@H]1CC[C@H](CNS(C)(=O)=O)CC1', '>10'),
  ('CCc1nc2cnc3ccsc3c2n1[C@@H]1CC[C@@H](CC#N)[C@@H](O)C1 (mixture of isomers)', '>10'),
  ('Cc1nc2cnc3ccsc3n2c1-c1ccc(CC#N)cc1', '>7'),
  ('C[C@@H](O)c1nc2cnc3ccsc3c2n1[C@H]1CC[C@H](CC#N)[C@H](N)C1', '>10'),
  ('CC(N)c1nc2cnc3ccsc3c2n1[C@H]1CC[C@H](CC#N)OC1.O=C(O)C(F)(F)F (some centres unmarked)', '>10'),
  ('N#CCC1CCC(CO)(n2cnc3cnc4ccsc4c32)CC1 (single isomer, unassigned) [72 (second peak)]', '>5'),
  ('Cc1nc2cnc3ccsc3c2n1[C@@H]1CC[C@@H](CC#N)[C@@H](O)C1 (mixture of isomers)', '>10'),
  ('C[C@@H](O)c1nc2cnc3ccsc3c2n1[C@H]1CC[C@@H](n2cncn2)CC1', '>6'),
  ('C[C@H](O)c1nc2cnc3ccsc3c2n1[C@H]1CC[C@H](CC#N)OC1', '>10'),
  ('N#CCc1nc2cnc3ccsc3c2n1[C@H]1CC[C@@H](CC#N)OC1', '>10'),
  ('CCOC(=O)NC[C@H]1CC[C@H](n2c(CC#N)nc3cnc4ccsc4c32)CC1', '>10'),
  ('C[C@@H](O)c1nc2cnc3ccsc3c2n1[C@H]1CC[C@H](CCS(C)(=O)=O)CC1', '>10'),
  ('CC(=O)NC[C@H]1CC[C@H](n2c([C@@H](C)O)nc3cnc4ccsc4c32)CC1', '>10'),
  ('CNC(C)c1nc2cnc3ccsc3c2n1[C@H]1CC[C@H](CC#N)OC1 (some centres unmarked)', '>10'),
  ('CC(=O)NC(C)c1nc2cnc3ccsc3c2n1[C@H]1CC[C@H](CC#N)OC1 (some centres unmarked)', '>10');

----------
Target: human JAK2 (Homo sapiens (Human))
Sequence (O60674 828-1132): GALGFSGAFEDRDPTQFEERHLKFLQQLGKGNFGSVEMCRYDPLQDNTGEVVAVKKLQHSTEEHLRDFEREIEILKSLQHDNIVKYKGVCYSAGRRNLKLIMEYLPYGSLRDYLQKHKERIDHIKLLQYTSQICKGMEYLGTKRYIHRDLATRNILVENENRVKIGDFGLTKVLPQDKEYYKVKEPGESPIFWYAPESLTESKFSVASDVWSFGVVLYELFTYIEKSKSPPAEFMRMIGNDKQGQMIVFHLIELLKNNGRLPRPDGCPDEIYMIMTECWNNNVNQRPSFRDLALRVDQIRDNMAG
Test: In vitro JAK kinase assay (HTRF, phosphorylation of biotinylated peptide), JAK2
Type: biochemical
Settings: 1 mM ATP
pIC50: −log10 of the molar value.
value.type: pIC50

INSERT INTO assay_data (molecule_smiles, value_observed) VALUES
  ('Cc1nn2cnc3ccsc3c2c1-c1ccc(CC#N)cc1', '≥ 6.00');

----------
System: human JAK1
Assay: In vitro JAK kinase assay (HTRF, phosphorylation of biotinylated peptide), JAK1
Assay type: biochemical
Conditions: ratio of JAK2 IC50 to JAK1 IC50, 1 mM ATP
value.type: JAK2/JAK1

INSERT INTO measurements (molecule, value_observed) VALUES
  ('C[C@@H](O)c1nc2cnc3ccsc3c2n1[C@H]1CC[C@H](CC#N)OC1', '>10'),
  ('C[C@@H](O)c1nc2cnc3ccsc3c2n1[C@H]1CCN(CCC#N)C1', '>10'),
  ('C[C@@H](O)c1nc2cnc3ccsc3c2n1[C@H]1CCCN(C(=O)CCC(F)(F)F)C1', '>10'),
  ('N#CC[C@H]1CC[C@H](n2/c(=N/C#N)[nH]c3cnc4ccsc4c32)CC1.O=C(O)C(F)(F)F', '>6'),
  ('CN1CC(c2nc3cnc4ccsc4c3n2[C@H]2CC[C@H](CC#N)CC2)C1', '>9'),
  ('C[C@@H](O)c1nc2cnc3ccsc3c2n1[C@H]1CC[C@H](CC#N)CC1.Cl', '>10'),
  ('N#CC[C@H]1CC[C@H](n2c(C3CC3)nc3cnc4ccsc4c32)CC1', '>10'),
  ('C[C@@H](O)c1nc2cnc3ccsc3c2n1C1CCC(NCCC#N)CC1 (single isomer, unassigned) [30 (first peak)]', '>2'),
  ('CCNC(=O)C[C@H]1CC[C@H](n2c([C@@H](C)O)nc3cnc4ccsc4c32)CC1', '>10'),
  ('C[C@@H](O)c1nc2cnc3ccsc3c2n1C1CCCCC1', '>10'),
  ('C[C@@H](O)c1nc2cnc3ccsc3c2n1C1CCC(O)(CC#N)CC1 (single isomer, unassigned) [24 (second peak)]', '>10'),
  ('C[C@@H](O)c1nc2cnc3ccsc3c2n1C1CCNCC1F (stereo partly drawn) [9 (2nd peak)]', '>10'),
  ('N#CCc1nc2cnc3ccsc3c2n1[C@H]1CC[C@H](CC#N)CC1', '>10'),
  ('C[C@@H](O)c1nc2cnc3ccsc3c2n1[C@@H]1CC[C@@H](CC#N)OC1', '>10'),
  ('CCc1nc2cnc3ccsc3c2n1[C@H]1CC[C@H](CC#N)OC1', '>10'),
  ('C[C@@H](O)c1nc2cnc3ccsc3c2n1C1CCN(CC#N)CC1.O=C(O)C(F)(F)F', '>10'),
  ('CCCOC(=O)NC[C@H]1CC[C@H](n2c([C@@H](C)O)nc3cnc4ccsc4c32)CC1', '>10'),
  ('C[C@@H](O)c1nc2cnc3ccsc3c2n1[C@H]1CC[C@H](CNC(=O)OC2CCOC2)CC1 (stereo partly drawn)', '>10'),
  ('C[C@@H](O)c1nc2cnc3ccsc3c2n1C1CCC(NCCC#N)CC1 (single isomer, unassigned) [30 (second peak)]', '>10'),
  ('Cc1nn2cnc3ccsc3c2c1-c1ccc(CC#N)cc1', '>3'),
  ('CCOC(=O)N1CCC[C@H](n2c([C@@H](C)O)nc3cnc4ccsc4c32)C1', '>10'),
  ('C[C@@H](O)c1nc2cnc3ccsc3c2n1C1CCCC(CCC#N)C1 (stereo partly drawn)', '>10'),
  ('C[C@@H](O)c1nc2cnc3ccsc3c2n1[C@H]1CC[C@@H](C#N)CC1', '>10'),
  ('C[C@@H](O)c1nc2cnc3ccsc3c2n1C1CCN(CC(F)(F)F)CC1', '>9'),
  ('Cc1nc2cnc3ccsc3c2n1[C@H]1CC[C@H](CC#N)OC1', '>10'),
  ('N#CC[C@H]1CC[C@H](n2c(CO)nc3cnc4ccsc4c32)CO1', '>10'),
  ('C[C@@H](O)c1nc2cnc3ccsc3c2n1[C@H]1CCCN(C(=O)CCCC#N)C1', '>10'),
  ('CCOC(=O)NC[C@H]1CC[C@H](n2c([C@@H](C)O)nc3cnc4ccsc4c32)CC1', '>10'),
  ('CC(C)OC(=O)NC[C@H]1CC[C@H](n2c([C@@H](C)O)nc3cnc4ccsc4c32)CC1', '>10'),
  ('C[C@@H](O)c1nc2cnc3ccsc3c2n1[C@H]1CC[C@@H](CC#N)C1.O=C(O)C(F)(F)F', '>10'),
  ('CC(CC(=O)N1CCC[C@H](n2c([C@@H](C)O)nc3cnc4ccsc4c32)C1)c1ccccc1 (stereo partly drawn)', '>10'),
  ('C[C@@H](O)c1nc2cnc3ccsc3c2n1[C@H]1CCCN(CCC#N)C1', '>10'),
  ('N#CCc1nc2cnc3ccsc3c2n1[C@H]1CC[C@H](CC#N)OC1', '>10');

----------
Test system: human JAK1
Assay: In vitro JAK kinase assay (HTRF, phosphorylation of biotinylated peptide), JAK1
Type: biochemical
Conditions: ratio of JAK2 IC50 to JAK1 IC50, 1 mM ATP
Protocol: Compounds herein were tested for inhibitory activity of JAK targets according to the following in vitro assay described in Park et al., Analytical Biochemistry 1999, 269, 94-104. […] The phosphorylated peptide was detected by homogenous time resolved fluorescence (HTRF). […] Binding to the Europium labeled antibody took place for 40 minutes and HTRF signal was measured on a PHERA star plate reader (BMG, Cary, N.C.). […]
Reported JAK2/JAK1 by item:
value.type: JAK2/JAK1

INSERT INTO measurements (compound, value_observed) VALUES
  ('C[C@@H](O)c1nc2cnc3ccsc3c2n1[C@H]1CCN(C(=O)CC#N)C1', '>6'),
  ('C[C@@H](O)c1nc2cnc3ccsc3c2n1[C@H]1CCCN(C(=O)CCc2ccccc2)C1', '>10'),
  ('CC(C)OC(=O)NC[C@H]1CC[C@H](n2c(CC#N)nc3cnc4ccsc4c32)CC1', '>10'),
  ('C[C@@H](O)c1nc2cnc3ccsc3c2n1[C@H]1CC[C@H](NCC(F)(F)F)CC1', '>10'),
  ('C[C@@H](O)c1nc2cnc3ccsc3c2n1[C@H]1CCCN(C(=O)CCC#N)C1', '>10'),
  ('C[C@@H](O)c1nc2cnc3ccsc3c2n1C1CCC(O)(CC#N)CC1 (single isomer, unassigned) [24 (first peak)]', '>10'),
  ('N#CC[C@H]1CC[C@H](n2c(C3CNC3)nc3cnc4ccsc4c32)CC1', '>7'),
  ('N#CC[C@H]1CC[C@H](n2c(CO)nc3cnc4ccsc4c32)CC1', '>10');
